Would you kindly list IC50 for each of these compounds?
System: COLO 205
Assay: MTS cell viability (cytotoxic activity) assay, COLO 205
Type: cell-based, Human
Conditions: Homo sapiens; COLO 205, MTS, 72 h; mean ± SD, at least three experiments
Answers are plain numbers, in µM.

compound="CC1=CC[C@@H]2C(C)(C)[C@H](O)CC[C@@]2(C)[C@@H]1COc1ccc2ccc(=O)oc2c1 [Feselol (3), feselol]" obs_value=38.4

Would you be so kind as to report IC50 for each listed record?
1. CC(=O)O[C@H]1CC[C@]2(C)[C@H](CC[C@@](C)(O)[C@@H]2COc2ccc3ccc(=O)oc3c2)C1(C)C [Kellerin (12), kellerin]
2. CC(=O)O[C@H]1CC[C@]2(C)[C@H](CC[C@](C)(O)[C@H]2COc2ccc3ccc(=O)oc3c2)C1(C)C [Samarcandin acetate (15), samarcandin acetate]
3. C=C1CCC2C(C)(C)C(=O)CCC2(C)C1COc1ccc2ccc(=O)oc2c1 (stereo not shown) [Mogoltadone (5), mogoltadone]
4. CC1=CC[C@@H]2C(C)(C)C(=O)CC[C@@]2(C)[C@@H]1COc1ccc2ccc(=O)oc2c1 [Conferone (1), conferone]
5. CC1(C)C(=O)CC[C@]2(C)[C@@H]1CC[C@](C)(O)[C@H]2COc1ccc2ccc(=O)oc2c1 [Samarcandone (13), samarcandone]
6. C=C1CCC2C(C)(C)C(OC(C)=O)CCC2(C)C1COc1ccc2ccc(=O)oc2c1 (stereo not shown) [Farnesiferol A acetate (7), farnesiferol A acetate]
7. CC(=O)O[C@@H]1CC[C@]2(C)[C@H](CC[C@@](C)(O)[C@@H]2COc2ccc3ccc(=O)oc3c2)C1(C)C [Ferukrin acetate (10), ferukrin acetate]

(A)
1. 51.1
2. 70.3
3. 31.7
4. 27.6
5. 125
6. 66
7. 106

(Q) Please state recorded IC50 (tested on COLO 205) of CC1(O)CCC2C(C)(C)C(O)CCC2(C)C1COc1ccc2ccc(=O)oc2c1 (stereo not shown) [Samarcandin (14), samarcandin]
(A) 170
